# Tested on: 20-HETE formation (CYP4) in HLM
# Assay protocol: IC50 determination, 20-HETE formation in HLM
# Assay type: biochemical, human
# Condition label: HLM 300 μg/ml, AA 100 μM, 12 concentrations
Measured IC50 of individual entries
Just the number in µM, nothing appended.

query: Sample CC(=O)Nc1ccc(C2CCN(c3ccn[nH]3)CC2)cc1 [Compound 29] — what was its IC50?
result: 0.17

query: // next record Cc1cccc(C2CCN(c3ccn[nH]3)CC2)c1 [Compound 33]
result: 0.18

Turning to the following molecule.
query: Can you look up the measured IC50 of Cc1ccc(C2CCN(c3ccn[nH]3)CC2)cc1 [Compound 23] for me?
result: 0.11

###

# Assay protocol: Turbidometric solubility determination
# Format: physicochemical
# Condition label: PBS with 1% DMSO, aqueous buffer, kinetic from dmso stock, room temperature, OD620, read-out: Max Solub
Reported solubility at 2 h values for the following molecules.

Below, 2 molecules whose answers are already recorded.
query: # get_value(readout='solubility at 2 h', item= CC(=O)N(C)c1ccc(C2CCN(c3cn[nH]c3)CC2)cc1 )
result: > 600 µM

query: Same again, this time with O=C1CCCN1Cc1ccc(C2CCN(c3cn[nH]c3)CC2)cc1
result: > 600 µM

Further cases:
query: Which solubility at 2 h reading was recorded for the molecule c1ccc(C2CCN(c3cn[nH]c3)CC2)cc1 ?
result: 121 µM

###

# Assay protocol: Turbidometric solubility determination
# Type: physicochemical
# Condition label: PBS with 1% DMSO, aqueous buffer, kinetic from dmso stock, room temperature, read-out: Solubility_ug/mL
Respond with Fulfilled for solubility at 2 h values of 100 µg/mL and above, Not fulfilled for values below.

Solved entries:
query: Answer whether solubility at 2 h of COc1cccc(C2CCN(c3cn[nH]c3)CC2)c1 is greater than or equal to 100 µg/mL.
result: Not fulfilled

query: Let us now turn to CC(=O)Nc1ccc(C2CCN(c3cn[nH]c3)CC2)cc1
result: Fulfilled

query: One more compound: c1ccc(CC2CCN(c3cn[nH]c3)CC2)cc1
result: Fulfilled

query: Consider next the compound Cc1cccc(C2CCN(c3cn[nH]c3)CC2)c1 in the same way.
result: Fulfilled

query: Now the compound Cc1ccc(C2CCN(c3cn[nH]c3)CC2)cc1
result: Not fulfilled

query: What would you report for CC(=O)N(C)c1ccc(C2CCN(c3ccn[nH]3)CC2)cc1 ?
result: Fulfilled

query: CCS(=O)(=O)c1ccc(C2CCN(c3cn[nH]c3)CC2)cc1 ?
result: Not fulfilled

query: How about this compound: COc1ccc(C2CCN(c3ccn[nH]3)CC2)cn1
result: Fulfilled

query: Consider next the compound COc1cncc(C2CCN(c3cn[nH]c3)CC2)c1 in the same way.
result: Fulfilled

query: Consider next the compound c1ccc(C2CCN(c3cn[nH]c3)CC2)cc1 in the same way.
result: Not fulfilled

Others:
query: Quick check: does O=S(=O)(c1ccccc1)C1CCN(c2ccn[nH]2)CC1 have solubility at 2 h greater than or equal to 100 µg/mL?
result: Fulfilled

query: Next compound up: c1ccc(C2CCN(c3ccn[nH]3)CC2)cc1
result: Fulfilled

###

# Assay protocol: Turbidometric solubility determination
# Format: physicochemical
# Condition label: PBS with 1% DMSO, aqueous buffer, kinetic from dmso stock, room temperature, OD620, read-out: Max Solub
Reported property: solubility at 2 h

query: Returns the measured solubility at 2 h for the input molecule. Input: CC(=O)Nc1ccc(C2CCN(c3ccn[nH]3)CC2)cc1 [Compound 29]
result: > 600 µM

query: Can you handle COc1cncc(C2CCN(c3cn[nH]c3)CC2)c1 [Compound 59] next?
result: > 600 µM

query: Now give it for Cc1cccc(C2CCN(c3cn[nH]c3)CC2)c1 [Compound 34] too.
result: > 600 µM

###

# inhibition at 0.5 µM per record follows
# System under test: UniProtKB P78329
# Sequence (P78329 5-520): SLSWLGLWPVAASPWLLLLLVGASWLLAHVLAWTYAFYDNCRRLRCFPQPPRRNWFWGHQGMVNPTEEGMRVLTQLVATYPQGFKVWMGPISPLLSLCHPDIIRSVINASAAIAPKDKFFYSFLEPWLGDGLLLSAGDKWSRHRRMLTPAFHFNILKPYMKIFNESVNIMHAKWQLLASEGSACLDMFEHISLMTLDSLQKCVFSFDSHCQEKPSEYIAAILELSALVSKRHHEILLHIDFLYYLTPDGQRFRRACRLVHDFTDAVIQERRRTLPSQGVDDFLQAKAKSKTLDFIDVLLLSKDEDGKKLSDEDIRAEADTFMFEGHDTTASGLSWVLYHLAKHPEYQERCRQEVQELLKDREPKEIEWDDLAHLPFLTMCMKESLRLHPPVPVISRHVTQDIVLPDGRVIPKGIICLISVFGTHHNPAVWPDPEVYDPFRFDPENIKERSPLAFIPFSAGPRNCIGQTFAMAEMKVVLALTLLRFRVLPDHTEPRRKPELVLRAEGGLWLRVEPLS
# Assay protocol: Inhibition of 20-HETE formation at 250 or 500 nM in rCYP4F2 incubations
# Format: biochemical
# Condition label: 500 nM compound; rCYP4F2 25 pmol/mL; read-out: rCYP4F2 % inh. @ 500 nM
Value expressed in %; do not type the unit.

The cases that follow already have their inhibition at 0.5 µM on record.
query: Give the measured inhibition at 0.5 µM of COc1ccc(C2CCN(c3cn[nH]c3)CC2)cc1Cl .
result: 72

query: // same read-out, input: COc1cccc(SC2CCN(c3cn[nH]c3)CC2)c1
result: 71

Let's switch to this compound now.
query: Bench note: what inhibition at 0.5 µM did Fc1ccccc1C1CCN(c2ccn[nH]2)CC1 show?
result: 69

###

# System: 20-HETE formation (CYP4) in HLM
# Assay protocol: Inhibition of 20-HETE formation at 250 or 500 nM in HLM microsomal incubations
# Assay type: biochemical, human
# Condition label: 500 nM compound; HLM 300 μg/ml, AA 100 μM, 20 min
Reported property: HLM % inh. @ 500 nM (%)
The reply should contain only the number, in %.

These recorded examples may help you get a feel for the data.
query: Query for 20-HETE formation (CYP4) in HLM: what HLM % inh. @ 500 nM does the record show for CC(=O)N(C)c1ccc(C2CCN(c3cn[nH]c3)CC2)cc1 ?
result: 75.00

query: Consider next the compound CC(=O)N(C)c1ccc(C2CCN(c3cn[nH]c3)CC2)cn1 in the same way.
result: 29.00

query: Then what about the compound O=S(=O)(c1ccccc1)C1CCN(c2cn[nH]c2)CC1 ?
result: 5.00

Shifting focus to the compound that follows.
query: For the record Cc1cccc(CC2CCN(c3ccn[nH]3)CC2)c1 , what value of HLM % inh. @ 500 nM is listed for 20-HETE formation (CYP4) in HLM?
result: 35.30

###

Readings of Stability HLM % @ 30 min for the listed molecules
# Assay protocol: HLM stability determination
# Format: in vitro ADME, human
# Condition label: HLM 500 μg/ml, 1 μM compound, NADPH, relative to 0 min

Completed entries (count: 4):
query: Could you tell me which Stability HLM % @ 30 min is on file for Clc1ccc(CC2CCN(c3cn[nH]c3)CC2)cc1 ?
result: 85%

query: For COc1cncc(C2CCN(c3ccn[nH]3)CC2)c1 then?
result: 100%

query: Can you handle CC(=O)Nc1ccc(C2CCN(c3cn[nH]c3)CC2)cc1 next?
result: 0%

query: Please answer likewise for c1ccc(C2CCN(c3ccn[nH]3)CC2)cc1
result: 91%

Further cases:
query: If you can, please state the reported Stability HLM % @ 30 min value of c1ccc(OC2CCN(c3cn[nH]c3)CC2)cc1 .
result: 97%

###

# Tested on: 20-HETE formation (CYP4) in RLM
# Assay protocol: Inhibition of 20-HETE formation at 250 or 500 nM in RLM microsomal incubations
# Type: biochemical, rat
# Condition label: 500 nM compound; RLM 300 μg/ml
RLM % inh. @ 500 nM by entry:
Report the value in % with no unit label.

query: Bench note: what RLM % inh. @ 500 nM did COCc1ccc(C2CCN(c3cn[nH]c3)CC2)cc1 [Compound 26] show?
result: 27.80

query: Same lookup for FC(F)(F)c1cncc(C2CCN(c3cn[nH]c3)CC2)c1 [Compound 95] , please.
result: 15.40

query: COc1ccc(C2CCN(c3cn[nH]c3)CC2)c(F)c1 [Compound 47] , same question.
result: 63.00

query: Another compound: c1cnc(SC2CCN(c3cn[nH]c3)CC2)nc1 [Compound 88]
result: 0.00

query: Query c1ccc(CC2CCN(c3cn[nH]c3)CC2)cc1 [Compound 3, 4-Benzyl-1-(1H-pyrazol-4-yl)piperidine] next
result: 2.40

query: Request: COc1ccc(C2CCN(c3ccn[nH]3)CC2)c(F)c1 [Compound 46]
result: 47.00

query: Same question for COc1cc(C2CCN(c3cn[nH]c3)CC2)ccc1F [Compound 75] please.
result: 0.00

query: Now the compound Clc1ccc(C2CCN(c3cn[nH]c3)CC2)cc1 [Compound 63]
result: 10.30

Further cases:
query: What RLM % inh. @ 500 nM value was documented for this compound, COc1ccc(C2CCN(c3ccn[nH]3)CC2)cc1 [Compound 19] ?
result: 31.80

query: Please give the result for O=C1CCCN1Cc1ccc(C2CCN(c3ccn[nH]3)CC2)cc1 [Compound 84] too.
result: 42.70

query: Cool, now COc1ccc(SC2CCN(c3cn[nH]c3)CC2)cc1 [Compound 80]
result: 42.00

query: Another compound to check: CC(=O)N(C)c1ccc(C2CCN(c3cn[nH]c3)CC2)cn1 [Compound 13]
result: 3.00
